Data origin: patent US20100152261A1

assayed.target: muscarinic M3 receptor (Cavia porcellus)
Construct: trachea was excised, and cut at every two tracheal cartilages to prepare tissue specimens; from tissue; host or cells: isolated guinea pig trachea (male Hartley)
Sequence (H0W1Z3 1-590): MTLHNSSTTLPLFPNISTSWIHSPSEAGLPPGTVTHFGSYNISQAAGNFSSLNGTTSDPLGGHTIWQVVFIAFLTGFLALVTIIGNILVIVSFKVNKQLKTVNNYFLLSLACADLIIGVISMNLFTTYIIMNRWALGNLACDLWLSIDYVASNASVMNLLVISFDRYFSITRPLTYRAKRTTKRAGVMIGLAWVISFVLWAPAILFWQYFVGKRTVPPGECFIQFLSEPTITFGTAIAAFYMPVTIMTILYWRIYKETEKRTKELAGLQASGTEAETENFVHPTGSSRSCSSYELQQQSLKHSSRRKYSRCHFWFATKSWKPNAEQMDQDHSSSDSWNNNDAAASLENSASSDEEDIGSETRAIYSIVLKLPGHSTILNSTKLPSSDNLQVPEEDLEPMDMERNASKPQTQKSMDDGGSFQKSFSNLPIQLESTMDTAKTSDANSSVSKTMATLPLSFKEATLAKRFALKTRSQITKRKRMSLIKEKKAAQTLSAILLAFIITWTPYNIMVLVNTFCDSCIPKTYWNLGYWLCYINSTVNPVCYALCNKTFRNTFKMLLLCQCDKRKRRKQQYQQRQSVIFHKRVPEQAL
experimental.details: Muscarinic M3 antagonistic action in isolated guinea pig trachea (carbachol-induced contraction, Schild method)
Assay type: cell-based
measurement.parameters: isolated guinea pig trachea, compound applied 15 minutes before carbachol, read-out: pA2 Trachea M3 (converted)
Method: Muscarinic M3 Antagonistic Action in Isolated Guinea Pig Trachea Male Hartley guinea pigs (350 to 600 g) were sacrificed by bleeding, and trachea was excised, and cut at every two tracheal cartilages to prepare tissue specimens. Each tissue specimen was kept warm at 37° C., suspended with a resting tension of 1 g in a 5-mL Magnus bath filled with a Krebs carbonate buffer containing indomethacin (1 μM) bubbled with 95% O2/5% CO2, and left for 60 minutes as a stabilization period. […]
The reader will find reported log10(Kb) values listed item by item below.
Please be aware that the numbers have been log10-transformed from Kb in nM.

Cc1n([C@H]2CC[C@@H](C(C(N)=O)(c3ccccc3)c3ccccc3)C2)cc[n+]1Cc1ccccc1 : -1.10
COCC[n+]1ccn([C@H]2CC[C@@H](C(C(N)=O)(c3ccccc3)c3ccccc3)C2)c1C : 0.10
Cc1nccn1[C@@H]1CC[C@H](C(C(N)=O)(c2ccccc2)c2ccccc2)C1 (relative stereo) [Reference Example 5, reference compound] : -0.10
Cc1n([C@H]2CC[C@@H](C(C(N)=O)(c3ccccc3)c3ccccc3)C2)cc[n+]1C : -0.10
CC1=[N+](C)CCN1[C@@H]1CC[C@H](C(C(N)=O)(c2ccccc2)c2ccccc2)C1 : -0.20
COCC[n+]1ccn([C@@H]2CC[C@H](C(C(N)=O)(c3ccccc3)c3ccccc3)C2)c1C : -0.60

Field: next molecule
**Query** Please give the measured log10(Kb) for this molecule: CC1=NCCN1[C@@H]1CC[C@H](C(C(N)=O)(c2ccccc2)c2ccccc2)C1 (relative stereo) [Reference Example 13, reference compound]
**Result** 0.70
